Dear all, I have gathered published Ki values for 5-hydroxytryptamine receptor 1A (Rattus norvegicus, UniProt P19327); the list follows.
Target Or System: 5-hydroxytryptamine receptor 1A (Rattus norvegicus, UniProt P19327)
Sequence (P19327 whole entry): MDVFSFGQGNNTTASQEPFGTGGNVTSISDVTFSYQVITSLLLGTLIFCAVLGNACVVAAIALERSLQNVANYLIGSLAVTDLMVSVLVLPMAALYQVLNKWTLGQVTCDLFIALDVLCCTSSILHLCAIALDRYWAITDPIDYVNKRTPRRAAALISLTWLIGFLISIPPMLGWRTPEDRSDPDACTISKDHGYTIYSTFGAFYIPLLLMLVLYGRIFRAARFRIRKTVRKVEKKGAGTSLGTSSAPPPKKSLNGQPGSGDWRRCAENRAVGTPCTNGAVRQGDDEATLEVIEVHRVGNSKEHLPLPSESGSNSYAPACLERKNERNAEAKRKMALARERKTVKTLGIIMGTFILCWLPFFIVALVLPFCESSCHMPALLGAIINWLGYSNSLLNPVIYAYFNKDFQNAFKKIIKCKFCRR
Measure: Ki (nM)

Here are 7 molecules together with their reported answers.
Cc1cn2c3c(=O)n(C)c(=O)n(C)c3nc2n1CCCCN1CCN(c2ccc(Cl)cc2)CC1 :: 38
COc1cc2nc(N3CCN(C(=O)c4ccco4)[C@H]4CCCC[C@H]43)nc(N)c2cc1OC :: 6170
COc1cccc(CCCCNCCOc2ccccn2)c1 :: 39
O=C(CCCCN1CCC(c2noc3cc(F)ccc23)CC1)c1cc2c3c(c1)CCC(=O)N3CCC2 :: 32.6
COc1ccccc1N1CCC(CNC[C@@H]2COc3ccccc3O2)CC1 :: 37
COc1ccc(C2CCC(N3CCN(c4ccccn4)CC3)CC2)cc1 (stereo in doubt) :: 94
COc1ccccc1N1CCN(CCCN2CCCn3c2nc2c3c(=O)n(C)c(=O)n2C)CC1 :: 2.8

(1) COc1ccccc1OCC(O)CN(C)C (stereo not given)
(2) COc1ccccc1N1CCN(CCCn2nc3ccccc3n2)CC1
Ask | Could you point out whether the larger Ki belongs to 1 or to 2 ? Pick one and reply with its label.
Reply | 1
(1: 3020 nM, 2: 24 nM)

----------
Target Or System: 5-hydroxytryptamine receptor 1A (Rattus norvegicus, UniProt P19327)
Sequence (P19327 whole entry): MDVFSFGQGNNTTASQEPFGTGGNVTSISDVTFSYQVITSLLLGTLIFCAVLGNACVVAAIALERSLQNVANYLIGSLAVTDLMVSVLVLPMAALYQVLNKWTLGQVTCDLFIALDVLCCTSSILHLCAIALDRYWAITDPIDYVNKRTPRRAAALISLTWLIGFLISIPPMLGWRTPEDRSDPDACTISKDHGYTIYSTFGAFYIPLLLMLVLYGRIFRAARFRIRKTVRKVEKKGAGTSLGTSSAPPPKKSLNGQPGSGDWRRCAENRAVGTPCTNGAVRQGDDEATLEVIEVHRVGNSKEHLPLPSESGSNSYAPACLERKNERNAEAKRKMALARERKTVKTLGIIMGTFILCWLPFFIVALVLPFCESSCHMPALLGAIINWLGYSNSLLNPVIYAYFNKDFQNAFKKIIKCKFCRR
pKi: −log10 of the molar value.
# merged literature set: pKi with 5-hydroxytryptamine receptor 1A (Rattus norvegicus, UniProt P19327)
Measure: pKi

COc1ccccc1N1CCN(CCCCNc2ccc([N+](=O)[O-])c3nonc23)CC1 :: 9.40

(a) COc1ccccc1N1CCN(CCCCCCCn2ncc(Cl)c(N3CCN(CC4COc5ccccc5O4)CC3)c2=O)CC1 (stereo unspecified)
(b) Cc1ccccc1N1CCN(CCCCN2CC(=O)N3CCCCC3C2=O)CC1.Cl (stereo unspecified)
Ask | From the recorded data, which exceeds the other in pKi: a or b ? Reply briefly: the label of your chosen item.
Reply | a
